Experiment: physchem
Conditions: buffer, pH 7.4
Catalogue of solubility values
measurement.label: solubility

CS(=O)(=O)O.O=c1[nH]n(C(c2ccccn2)C2CC2)c(=O)c2c(O)c3ccc(Cl)cc3nc12 (centres undefined) = 490 µg/mL
O=c1[nH]n(Cc2cc[n+]([O-])cc2)c(=O)c2c(O)c3ccc(Cl)cc3nc12 = > 160 µg/mL
CC(C)CC(c1ccccn1)n1[nH]c(=O)c2nc3cc(Cl)ccc3c(O)c2c1=O.CS(=O)(=O)O (centres undefined) = > 130 µg/mL
CCC(c1ccncc1)n1[nH]c(=O)c2[nH]c3cc(Cl)ccc3c(=O)c2c1=O.CS(=O)(=O)O (centres undefined) = > 200 µg/mL
CS(=O)(=O)O.O=c1[nH]n(C(c2ccccc2)c2ccncc2)c(=O)c2c(O)c3ccc(Cl)cc3nc12 (centres undefined) = 130 µg/mL
CCCCC(c1ccccn1)n1[nH]c(=O)c2nc3cc(Cl)ccc3c(O)c2c1=O.CS(=O)(=O)O (centres undefined) = > 220 µg/mL
CCCC(c1ccncc1)n1[nH]c(=O)c2nc3cc(Cl)ccc3c(O)c2c1=O.CS(=O)(=O)O (centres undefined) = > 220 µg/mL
CS(=O)(=O)O.O=c1[nH]n(C(c2ccccn2)C2CCCC2)c(=O)c2c(O)c3ccc(Cl)cc3nc12 (centres undefined) = > 170 µg/mL
CC(C)CC(c1ccncc1)n1[nH]c(=O)c2nc3cc(Cl)ccc3c(O)c2c1=O.CS(=O)(=O)O (centres undefined) = > 170 µg/mL

----------
Experiment: Oral bioavailability in rat
Conditions: in vivo
measurement.label: bioavailability (%)

O=c1[nH]n(Cc2ccncc2)c(=O)c2c(=O)c3ccc(Cl)cc3[nH]c12 = 5
CCC(c1ccncc1)n1[nH]c(=O)c2[nH]c3cc(Cl)ccc3c(=O)c2c1=O.CS(=O)(=O)O (stereo not drawn) = 17
CC(c1ccncc1)n1[nH]c(=O)c2[nH]c3cc(Cl)ccc3c(=O)c2c1=O.CS(=O)(=O)O (stereo not drawn) = 30

----------
Consider compounds characterized by their Ki with Glutamate NMDA receptor.
measurement.label: Ki

CS(=O)(=O)O.O=c1[nH]n(C(c2ccccn2)C2CC2)c(=O)c2c(O)c3ccc(Cl)cc3nc12 (stereo not given) = 0.996 µM
CS(=O)(=O)O.O=c1[nH]n(C(c2ccccn2)C2CCCC2)c(=O)c2c(O)c3ccc(Cl)cc3nc12 (stereo not given) = > 10 µM
CCCC(c1ccncc1)n1[nH]c(=O)c2nc3cc(Cl)ccc3c(O)c2c1=O.CS(=O)(=O)O (stereo not given) = 4.34 µM
CC(c1cc[n+]([O-])cc1)n1[nH]c(=O)c2nc3cc(Cl)ccc3c(O)c2c1=O (stereo not given) = 2.42 µM
O=c1[nH]n(Cc2cc[n+]([O-])cc2)c(=O)c2c(O)c3ccc(Cl)cc3nc12 = 0.439 µM
CC(C)CC(c1ccccn1)n1[nH]c(=O)c2nc3cc(Cl)ccc3c(O)c2c1=O.CS(=O)(=O)O (stereo not given) = > 10 µM
CC(C)CC(c1ccncc1)n1[nH]c(=O)c2nc3cc(Cl)ccc3c(O)c2c1=O.CS(=O)(=O)O (stereo not given) = 5.23 µM
CS(=O)(=O)O.O=c1[nH]n(C(c2ccccc2)c2ccncc2)c(=O)c2c(O)c3ccc(Cl)cc3nc12 (stereo not given) = > 10 µM
CCCCC(c1ccccn1)n1[nH]c(=O)c2nc3cc(Cl)ccc3c(O)c2c1=O.CS(=O)(=O)O (stereo not given) = > 10 µM
CCC(c1ccccn1)n1[nH]c(=O)c2nc3cc(Cl)ccc3c(O)c2c1=O (stereo not given) = 2.36 µM
